test system: HS 578T breast; assay: NCI-60 one-dose screen, 48 h; conditions: 10 µM
Compounds without any hit were thinned out: in the full panel of roughly 83,000, 20% have a hit. Active and inactive are the calls of the source. How the source made its calls: active means growth percent below 10; inactive means the rest.
Possible outcomes: active, inactive

compound	group-label
C[C@@H](c1ccccc1)[C@@H](C(=O)O)c1ccccc1	inactive
COc1cc(OC)c2ccc(=O)oc2c1	inactive
c1ncc2[nH]cnc2n1	inactive
CNS(=O)(=O)c1ccc(Cl)c(Cl)c1	inactive
CC1=CC(=O)c2ccccc2C1=O	inactive
c1ccc(/C(=N\N=C(/c2ccccc2)c2cccs2)c2cccs2)cc1	inactive
O=[N+]([O-])c1cccc(N=Nc2ccc(O)cc2O)c1	inactive
C/C=C/CC(C)C(O)C1C(=O)NC(CC)C(=O)N(C)CC(=O)N(C)C(CC(C)C)C(=O)NC(C(C)C)C(=O)N(C)C(CC(C)C)C(=O)NC(C)C(=O)NC(C)C(=O)N(C)C(CC(C)C)C(=O)N(C)C(CC(C)C)C(=O)N(C)C(C(C)C)C(=O)N1C (stereo not drawn)	inactive
COc1cc2c3cc1Oc1c(OC)c(OC)cc4c1C(Cc1ccc(O)c(c1)Oc1ccc(cc1)CC3N(C)CC2)N(C)CC4 (stereo not drawn)	inactive
OCCN1CCOCC1	inactive
CCOC(=O)CNN	inactive
Nc1ccc(N=Nc2ccc(S(=O)(=O)O)cc2)c2ccccc12	inactive
COc1cccc(/C=N/NC(=S)NC2CC3CCC2C3)c1O (stereo not drawn)	inactive
COc1ccc(-c2cc(-c3cc(-c4ccc(OC)cc4)nc(N)n3)nc(N)n2)cc1	inactive
OCc1ccc(-c2ccc(-c3ccc(CO)s3)o2)s1	inactive
CC(C)=CC(=O)OC(=O)C=C(C)C	inactive
O=c1cc(-c2ccccc2)oc2c1ccc1ccccc12	inactive
COC(=O)/C=C\C(=O)OC	inactive
Nc1ccc(C(=O)c2ccc(N)c(Br)c2)cc1Br	active
O=[N+]([O-])c1ccc(Sc2ccncn2)c([N+](=O)[O-])c1	inactive
COc1ccc(-c2cc3c(nn2)-c2ccccc2C3=O)cc1	inactive
CC(=O)OC1CC2C(C)(C)OC3CC(=O)OCC32C2CCC3(C)C(=CCC3c3ccoc3)C12C (stereo not drawn)	inactive
NCC(=O)CCC(=O)O	inactive
FC(F)(F)c1ccc2c(c1)N(CCCN1CCN(C3CC3)CC1)c1ccccc1S2	inactive
COc1cc2cc(c1Cl)N(C)C(=O)C[C@H](OC(=O)[C@H](C)N(C)C(C)=O)[C@]1(C)O[C@H]1[C@H](C)[C@@H]1C[C@@](O)(NC(=O)O1)[C@H](OC)C=C/C=C(\C)C2	active
CCCNc1ccc(C2=NCCCN2)cc1	inactive
O=[N+]([O-])c1cccc2nsnc12	inactive
O=C1OC(=O)C2C1C1(Cl)C(Cl)=C(Cl)C2(Cl)C2C(=O)OC(=O)C21 (stereo not drawn)	inactive
C=CC(O)CCC (stereo not drawn)	inactive
COc1ccc(C2(O)CCCCC2)cc1	inactive
O=C(NCc1ccco1)Nc1c(Cl)cc(Cl)cc1Cl	inactive
Cc1cc(/C=C/c2ccc3cc(N(C)C)ccc3[n+]2C)c(C)n1-c1ccccc1	active
CC(=O)/C(Cc1ccccc1)=N/O	inactive
Cc1ccc(Cl)cc1N1C(=O)CC(Sc2ccccc2N)C1=O (stereo not drawn)	inactive
C[C@]12CC[C@@H]3c4ccc(OCC(=O)O)cc4CC[C@H]3[C@@H]1CCC2=O	inactive
C/C(=N/NC(N)=O)c1ccco1	inactive
S=c1nn[nH]c2ccccc12	inactive
COc1cc2c3c(n(C)c(=O)c2cc1OC)-c1cc2c(cc1C3=O)OCO2	inactive
COc1nc(N)nc2c1ncn2C1OC(CO)CC1O (stereo not drawn)	inactive
Clc1ccc(-c2n[nH]c3c2Cc2ccccc2-3)cc1Cl	inactive
O=[N+]([O-])c1cccc(C(F)(F)F)c1	inactive
Cc1ccc(C(=O)N/N=C/c2ccc3c(c2)OCO3)cc1	inactive
O=C(O)c1ccccc1NCc1ccco1	inactive
CCOC(=O)c1ccc(Nc2sc(C(=O)c3cccc([N+](=O)[O-])c3)c(N)c2C#N)cc1	inactive
Cc1ccc(C(=O)NC2c3ccccc3Oc3ccccc32)cc1	inactive
O=c1[nH]c(O)c(/C=C2/C=Nc3ccccc32)[nH]1	inactive
CCOC(=O)c1[nH]c(C)c(C(=O)O)c1C	inactive
COC(=O)/C=C1\Sc2cc(F)ccc2NC1=O	inactive
